Origin of measurements: paper PMC2756588

Would you kindly list SPOT intensity for each of these binders?
target_or_system: T1, Myo5, Q04439
T1 sequence (Q04439 1072-1160, looked up): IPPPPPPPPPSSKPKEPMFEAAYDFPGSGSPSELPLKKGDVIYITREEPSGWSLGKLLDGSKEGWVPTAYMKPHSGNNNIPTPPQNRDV
assay_method_text: SPOT array
assay_setup: median of control spots 471
Give bare numbers.

For orientation, consider the following solved cases.
Incoming: Provide measured SPOT intensity value, entry: LYEAMPPTLPHRDWK
Outgoing: 1

Incoming: Provide measured SPOT intensity value, entry: TPTSGPPLLPPRNTM
Outgoing: 45

Incoming: Provide measured SPOT intensity value, entry: GPPPPLPPPLFPSSS
Outgoing: 362

Incoming: Provide measured SPOT intensity value, entry: RRRRRPHRIERPLSN
Outgoing: 1

Incoming: Provide measured SPOT intensity value, entry: RRARRQMGIPTISQV
Outgoing: 20

Below are 2 binders. Give each one its SPOT intensity.
1. KDKSRPPRPPPKPLH
2. PALPSLPPPPLLNVD

Outgoing:
[10, 688]
